Collected IC50 values appear next to each entry.
Target chain: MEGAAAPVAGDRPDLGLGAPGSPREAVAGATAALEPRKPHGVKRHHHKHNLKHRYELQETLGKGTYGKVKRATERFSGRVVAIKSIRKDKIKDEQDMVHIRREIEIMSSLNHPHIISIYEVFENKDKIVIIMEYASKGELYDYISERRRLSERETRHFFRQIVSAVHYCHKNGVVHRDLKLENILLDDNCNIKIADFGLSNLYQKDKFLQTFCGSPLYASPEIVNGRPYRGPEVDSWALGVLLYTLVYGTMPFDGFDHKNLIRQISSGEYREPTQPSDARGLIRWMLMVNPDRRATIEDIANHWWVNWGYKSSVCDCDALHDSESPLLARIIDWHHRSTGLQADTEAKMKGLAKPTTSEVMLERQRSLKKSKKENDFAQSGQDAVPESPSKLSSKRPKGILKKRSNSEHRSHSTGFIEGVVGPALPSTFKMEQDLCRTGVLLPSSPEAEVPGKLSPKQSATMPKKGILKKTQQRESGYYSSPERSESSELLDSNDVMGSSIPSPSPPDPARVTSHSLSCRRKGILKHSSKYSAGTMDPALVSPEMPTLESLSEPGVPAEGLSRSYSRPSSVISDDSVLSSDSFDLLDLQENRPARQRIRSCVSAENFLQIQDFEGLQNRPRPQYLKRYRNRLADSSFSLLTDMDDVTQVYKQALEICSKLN
MEASURE NAME: IC50

>>> observed("CN1CCN(c2ccc(Nc3ncc(Cl)c(Nc4cccc5c4C(=O)NC5)n3)cc2)CC1 [Compound I-51]")
"0.1 to 10 nM"
>>> observed("COc1cc2c(cc1Nc1ncc(C(F)(F)F)c(Nc3cccc4c3C(=O)NC4)n1)CN(C)CC2 [Compound I-21]")
"11 to 100 nM"
>>> observed("CC(C)N1CCN(C2CCN(c3ccc(Nc4ncc(Cl)c(Nc5cccc6c5C(=O)NC6)n4)c(OC(F)F)c3)CC2)CC1 [Compound I-81]")
"11 to 100 nM"
>>> observed("COc1cc2c(cc1Nc1ncc(C(F)(F)F)c(Nc3cccc4c3C(=O)NC4)n1)CNCC2 [Compound I-30]")
"0.1 to 10 nM"
>>> observed("COc1cc2c(cc1Nc1ncc(OC)c(Nc3cccc4c3C(=O)NC4)n1)CCNC2 [Compound I-47]")
"101 to 1000 nM"
>>> observed("COc1nc(N2CCC(N3CCN(C)CC3)CC2)ccc1Nc1ncc(Cl)c(Nc2cccc3c2C(=O)NC3)n1 [Compound I-13]")
"11 to 100 nM"
>>> observed("COc1nc(N2CCN(C)CC2)ccc1Nc1ncc(C(F)(F)F)c(Nc2cccc3c2C(=O)NC3)n1 [Compound I-68]")
"11 to 100 nM"

====

Record set of IC50 for target or system Aurora A (Homo sapiens, UniProt O14965).
MEASURE NAME: IC50

>>> observed("O=C1NCc2cccc(Nc3nc(Nc4ccc(N5CCOCC5)cc4OC(F)F)ncc3C(F)(F)F)c21")
"101 to 1000 nM"
>>> observed("COc1cc(CN(C)C)ccc1Nc1ncc(Cl)c(Nc2cccc3c2C(=O)NC3)n1")
"101 to 1000 nM"
>>> observed("Cc1cnc(Nc2ccc(N3CCN(C)CC3)cc2OC(F)F)nc1Nc1cccc2c1C(=O)NC2")
"> 1000 nM"
>>> observed("Cc1c(N2CCN(C)CC2)ccc(Nc2ncc(Cl)c(Nc3cccc4c3C(=O)NC4)n2)c1Cl")
"101 to 1000 nM"
>>> observed("CCN1CCN(c2ccc(Nc3ncc(C(F)(F)F)c(Nc4cccc5c4C(=O)NC5)n3)c(OC(F)F)c2)CC1")
"101 to 1000 nM"
>>> observed("C[C@H]1CN(c2ccc(Nc3ncc(C(F)(F)F)c(Nc4cccc5c4C(=O)NC5)n3)c(OC(F)F)c2)CCN1")
"> 1000 nM"
>>> observed("COc1c(Nc2ncc(Cl)c(Nc3cccc4c3C(=O)NC4)n2)ccc(N2CCN3CCCC3C2)c1F (stereo not drawn)")
"101 to 1000 nM"
>>> observed("COc1cc2c(cc1Nc1ncc(OC)c(Nc3cccc4c3C(=O)NC4)n1)CCNC2")
"> 1000 nM"
>>> observed("COc1cc2c(cc1Nc1ncc(C(F)(F)F)c(Nc3cccc4c3C(=O)NC4)n1)CCN(C)C2")
"101 to 1000 nM"

====

Target: NUAK2 (h) (Homo sapiens)
Construct: This assay was done radiometrically using full-length, recombinant enzyme
Experiment: NUAK2 enzymatic assay (radiometric, Eurofins)
Details: full-length recombinant enzyme
pIC50: −log10 of the molar value.
MEASURE NAME: pIC50

>>> observed("CCN(CC)CCOc1ccc(Nc2ncc(Cl)c(Nc3cccc4c3C(=O)NC4)n2)cc1")
"8.00 to 10.00"
>>> observed("COc1cc2c(cc1Nc1ncc(C(F)(F)F)c(Nc3cccc4c3C(=O)NC4)n1)CCNC2")
"7.00 to 7.96"
>>> observed("O=C1NCc2cccc(Nc3nc(Nc4ccc(N5C[C@H]6CNC[C@H]6C5)cc4OC(F)F)ncc3C(F)(F)F)c21")
"7.00 to 7.96"
>>> observed("C[C@@H]1CN(c2ccc(Nc3ncc(C(F)(F)F)c(Nc4cccc5c4C(=O)NC5)n3)c(OC(F)F)c2)CCN1")
"8.00 to 10.00"
>>> observed("COc1c(Nc2ncc(C(F)(F)F)c(Nc3cccc4c3C(=O)NC4)n2)ccc(N2CCC(N3CCCC3)CC2)c1F")
"8.00 to 10.00"
>>> observed("O=C1NCc2cccc(Nc3nc(Nc4ccc(N5CCC(N6CCNCC6)CC5)cc4OC(F)F)ncc3C(F)(F)F)c21")
"8.00 to 10.00"
>>> observed("COc1c(Nc2ncc(Cl)c(Nc3cccc4c3C(=O)NC4)n2)ccc(N2CCN3CCCC3C2)c1F (stereo not drawn)")
"7.00 to 7.96"
>>> observed("O=C1NCc2cccc(Nc3nc(Nc4ccc(N5CCC(N6CCNCC6)CC5)cc4OC(F)F)ncc3Cl)c21")
"8.00 to 10.00"
>>> observed("CCN1CCN(C2CCN(c3ccc(Nc4ncc(Cl)c(Nc5cccc6c5C(=O)NC6)n4)c(OC(F)F)c3)CC2)CC1")
"7.00 to 7.96"
>>> observed("O=C1NCc2cccc(Nc3nc(Nc4ccc(N5C[C@@H]6C[C@H]5CN6)cc4OC(F)F)ncc3Cl)c21")
"8.00 to 10.00"
>>> observed("COc1cc2c(cc1Nc1ncc(Cl)c(Nc3cccc4c3C(=O)NC4)n1)CNCC2")
"7.00 to 7.96"
>>> observed("O=C1NCc2cccc(Nc3nc(Nc4ccc(N5CCCNCC5)cc4OC(F)F)ncc3C(F)(F)F)c21")
"8.00 to 10.00"
>>> observed("O=C1NCc2cccc(Nc3nc(Nc4ccc(N5[C@@H]6CC[C@H]5CNC6)cc4OC(F)F)ncc3Cl)c21")
"8.00 to 10.00"
>>> observed("Cc1cnc(Nc2ccc(N3CCN(C)CC3)cc2OC(F)F)nc1Nc1cccc2c1C(=O)NC2")
"8.00 to 10.00"
>>> observed("COc1cc2c(cc1Nc1ncc(C(F)(F)F)c(Nc3cccc4c3C(=O)NC4)n1)CCNCC2")
"8.00 to 10.00"
>>> observed("CN1CCN(c2ccc(Nc3ncc(Cl)c(Nc4cccc5c4C(=O)NC5)n3)cc2)CC1")
"8.00 to 10.00"
>>> observed("CN1C[C@@H]2CN(c3ccc(Nc4ncc(Cl)c(Nc5cccc6c5C(=O)NC6)n4)c(OC(F)F)c3)C[C@@H]2C1")
"8.00 to 10.00"
>>> observed("COc1cc2c(cc1Nc1ncc(C(F)(F)F)c(Nc3cccc4c3C(=O)NC4)n1)CNCC2")
"8.00 to 10.00"
>>> observed("O=C1NCc2cccc(Nc3nc(Nc4ccc(N5C[C@H]6C[C@@H]5CN6)cc4OC(F)F)ncc3Cl)c21")
"8.00 to 10.00"
>>> observed("COc1cc2c(cc1Nc1ncc(C(F)(F)F)c(Nc3cccc4c3C(=O)NC4)n1)CNCC21CC1")
"8.00 to 10.00"
>>> observed("CN1CCN(c2ccc(Nc3ncc(Cl)c(Nc4cccc5c4C(=O)NC5)n3)c(OC(F)F)c2)CC1")
"8.00 to 10.00"
>>> observed("COc1cc2c(cc1Nc1ncc(F)c(Nc3cccc4c3C(=O)NC4)n1)CCNC2")
"7.00 to 7.96"
>>> observed("CN1CCN(C2CCN(c3ccc(Nc4ncc(C(F)(F)F)c(Nc5cccc6c5C(=O)NC6)n4)c(OC(F)F)c3)CC2)CC1")
"8.00 to 10.00"
>>> observed("Cc1c(N2CCN(C)CC2)ccc(Nc2ncc(Cl)c(Nc3cccc4c3C(=O)NC4)n2)c1Cl")
"7.00 to 7.96"

====

Target: NUAK2 (h) (Homo sapiens, UniProt Q9H093)
Construct: This assay was done radiometrically using full-length, recombinant enzyme
Sequence (Q9H093 1-628): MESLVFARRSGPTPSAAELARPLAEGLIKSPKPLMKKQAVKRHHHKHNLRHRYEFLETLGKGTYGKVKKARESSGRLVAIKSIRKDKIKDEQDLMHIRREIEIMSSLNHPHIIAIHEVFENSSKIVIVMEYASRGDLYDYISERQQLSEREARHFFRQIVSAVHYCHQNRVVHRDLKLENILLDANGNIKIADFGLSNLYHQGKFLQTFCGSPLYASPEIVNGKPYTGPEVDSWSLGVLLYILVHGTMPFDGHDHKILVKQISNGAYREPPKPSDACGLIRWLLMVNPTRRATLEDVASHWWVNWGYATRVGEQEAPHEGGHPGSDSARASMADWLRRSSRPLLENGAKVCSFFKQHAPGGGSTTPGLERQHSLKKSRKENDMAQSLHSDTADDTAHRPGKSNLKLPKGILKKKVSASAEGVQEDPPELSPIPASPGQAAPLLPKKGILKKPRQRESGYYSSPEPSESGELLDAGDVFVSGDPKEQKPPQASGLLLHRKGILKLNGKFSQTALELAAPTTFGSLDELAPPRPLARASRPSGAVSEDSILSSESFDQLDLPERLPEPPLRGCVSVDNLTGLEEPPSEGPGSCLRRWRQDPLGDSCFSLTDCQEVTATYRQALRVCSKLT
Assay: NUAK2 enzymatic assay (radiometric, Eurofins)
Settings: full-length recombinant enzyme
pIC50: −log10 of the molar value.
MEASURE NAME: pIC50

>>> observed("COc1c(Nc2ncc(C(F)(F)F)c(Nc3cccc4c3C(=O)NC4)n2)ccc(N2C[C@H]3CN(C)C[C@H]3C2)c1F")
"7.00 to 7.96"
>>> observed("COc1cc2c(cc1Nc1ncc(Cl)c(Nc3cccc4c3C(=O)NC4)n1)CNCC21CC1")
"7.00 to 7.96"
>>> observed("CN1CCN(C2CCN(c3ccc(Nc4ncc(Cl)c(Nc5cccc6c5C(=O)NC6)n4)c(OC(F)F)c3)CC2)CC1")
"8.00 to 10.00"
>>> observed("CCN(CC)CCOc1ccc(Nc2ncc(C(F)(F)F)c(Nc3cccc4c3C(=O)NC4)n2)cc1")
"7.00 to 7.96"
